system: Staphylococcus aureus; experiment: Antibacterial activity against methicillin-resistant Staphylococcus aureus G12 measured after overnight incubation by broth double-dilution method; type: functional
Quick reference: MIC of the listed items.

# annotated cases, reported MIC shown
[[record]]
compound = "CC(C)Cn1c(=O)c2ccccc2[s+]1[O-] (stereo not drawn)"
parameter_measured = "MIC"
data_value = "> 125 µg/mL"

[[record]]
compound = "O=c1c2ccccc2[s+]([O-])n1C1CCCCCCC1 (stereo not drawn)"
parameter_measured = "MIC"
data_value = "> 125 µg/mL"


Next, consider the following compound.
MIC for CC(C)CCn1c(=O)c2ccccc2[s+]1[O-] (stereo not drawn) is > 125 µg/mL

* * *

test system: Staphylococcus aureus; assay: Antibacterial activity against methicillin-resistant Staphylococcus aureus C14 measured after overnight incubation by broth double-dilution method; assay type: functional
Each entry below carries its recorded MIC.
Please respond with the number in µg/mL and leave the unit unwritten.

[[record]]
entry_smiles = "O=c1c2ccccc2sn1C1CCCCC1"
parameter_measured = "MIC"
data_value = 2

[[record]]
entry_smiles = "CC(C)CCn1sc2ccccc2c1=O"
parameter_measured = "MIC"
data_value = 3.9

[[record]]
entry_smiles = "O=c1c2ccccc2sn1-c1ccc(Br)cc1"
parameter_measured = "MIC"
data_value = 3.9


Recorded MIC (compound `O=c1c2ccccc2sn1-c1ccc(F)cc1` ): 3.9

Record `CC(C)c1ccc(-n2sc3ccccc3c2=O)cc1` , field MIC: 1

* * *

Listing: MIC of selected compounds
system: Staphylococcus aureus; assay: Antibacterial activity against methicillin-resistant Staphylococcus aureus C14 measured after overnight incubation by broth double-dilution method; type: functional

Please review the entries below; each comes with its answer.
[[record]]
compound = "O=c1c2ccccc2[s+]([O-])n1C1CCCCCCC1 (stereo not drawn)"
data_value = "> 125 µg/mL"

[[record]]
compound = "CC(C)Cn1c(=O)c2ccccc2[s+]1[O-] (stereo not drawn)"
data_value = "> 125 µg/mL"


Let us move to another entry and its MIC.
For CC(C)CCn1c(=O)c2ccccc2[s+]1[O-] (stereo not drawn) the compound record lists MIC as > 125 µg/mL
